Numbers sourced from paper PMC4893628.

Each entry below carries its reported activity at 40 µM.
tested on: Bacillus subtilis 168; experiment: Bacterial growth in microscale cultivation, B. subtilis; assay type: cell-based; settings: Bacillus subtilis, 168, complex medium, 40 µM, relative to control; read-out: Growth rate
Value kind: activity at 40 µM (%)

molecule="O=C(/C=C/c1ccc(O)cc1)c1ccc(O)cc1O [Compound 6, 2′,4′,4-Trihydroxychalcone]" quantitative_result=107
molecule="O=C(/C=C/c1ccc(O)c(O)c1)c1ccc(O)cc1O [Compound 8, 2′,4′,3,4-Tetrahydroxy-chalcone]" quantitative_result=109
molecule="O=C(/C=C/c1ccccc1)c1ccc(O)cc1O [Compound 4, 2′,4′-Dihydroxychalcone]" quantitative_result=97.4
molecule="O=C(/C=C/c1ccc(O)cc1)c1ccccc1O [Compound 3, 2′,4-Dihydroxychalcone]" quantitative_result=108
molecule="O=C(/C=C/c1ccccc1O)c1ccc(O)cc1O [Compound 7, 2′,4′,2-Trihydroxychalcone]" quantitative_result=104

###

Each entry below carries its reported Lag Phase.
system: Bacillus subtilis 168; assay: Bacterial growth in microscale cultivation, B. subtilis; format: cell-based; details: minimal medium, 4 µM, relative to control
Value kind: Lag Phase

molecule="O=C(/C=C/c1ccc(O)c(O)c1)c1ccc(O)cc1O [Compound 8, 2′,4′,3,4-Tetrahydroxy-chalcone]" result=110,3%
molecule="O=C(/C=C/c1ccccc1O)c1ccc(O)cc1O [Compound 7, 2′,4′,2-Trihydroxychalcone]" result=104,9%
molecule="O=C(/C=C/c1ccccc1)c1ccc(O)cc1O [Compound 4, 2′,4′-Dihydroxychalcone]" result=97,7%
molecule="O=C(/C=C/c1ccc(O)cc1)c1ccccc1O [Compound 3, 2′,4-Dihydroxychalcone]" result=99,0%
molecule="O=C(/C=C/c1ccc(O)cc1)c1ccc(O)cc1O [Compound 6, 2′,4′,4-Trihydroxychalcone]" result=98,9%

###

Each entry below carries its reported activity at 400 µM.
system: Corynebacterium glutamicum ATCC13032; assay: Bacterial growth in microscale cultivation, C. glutamicum; format: cell-based; details: Corynebacterium glutamicum, ATCC13032, complex medium, 400 µM, relative to control; read-out: Final Backscatter
Value kind: activity at 400 µM (%)

compound="O=C(/C=C/c1ccccc1O)c1ccc(O)cc1O [Compound 7, 2′,4′,2-Trihydroxychalcone]" quantitative_result=110
compound="O=C(/C=C/c1ccc(O)cc1)c1ccc(O)cc1O [Compound 6, 2′,4′,4-Trihydroxychalcone]" quantitative_result=97.7
compound="O=C(/C=C/c1ccccc1)c1ccccc1 [Compound 1, trans-Chalcone]" quantitative_result=106
compound="O=C(/C=C/c1ccc(O)cc1)c1ccccc1O [Compound 3, 2′,4-Dihydroxychalcone]" quantitative_result=112
compound="O=C(/C=C/c1ccccc1)c1ccc(O)cc1O [Compound 4, 2′,4′-Dihydroxychalcone]" quantitative_result=107

###

target: wild-type C4 PEPC from F. trinervia (Flaveria trinervia, UniProt P30694); construct: the full-length ppcA gene of PEPC from F. trinervia (EMBL-Bank X61304); made in house; host or cells: Escherichia coli BL21(DE3); assay: Isothermal titration calorimetry, wild-type C4 PEPC; assay type: binding; conditions: ITC, wild-type (wtFt), no aspartate; read-out: Kd
Sequence (P30694 whole entry): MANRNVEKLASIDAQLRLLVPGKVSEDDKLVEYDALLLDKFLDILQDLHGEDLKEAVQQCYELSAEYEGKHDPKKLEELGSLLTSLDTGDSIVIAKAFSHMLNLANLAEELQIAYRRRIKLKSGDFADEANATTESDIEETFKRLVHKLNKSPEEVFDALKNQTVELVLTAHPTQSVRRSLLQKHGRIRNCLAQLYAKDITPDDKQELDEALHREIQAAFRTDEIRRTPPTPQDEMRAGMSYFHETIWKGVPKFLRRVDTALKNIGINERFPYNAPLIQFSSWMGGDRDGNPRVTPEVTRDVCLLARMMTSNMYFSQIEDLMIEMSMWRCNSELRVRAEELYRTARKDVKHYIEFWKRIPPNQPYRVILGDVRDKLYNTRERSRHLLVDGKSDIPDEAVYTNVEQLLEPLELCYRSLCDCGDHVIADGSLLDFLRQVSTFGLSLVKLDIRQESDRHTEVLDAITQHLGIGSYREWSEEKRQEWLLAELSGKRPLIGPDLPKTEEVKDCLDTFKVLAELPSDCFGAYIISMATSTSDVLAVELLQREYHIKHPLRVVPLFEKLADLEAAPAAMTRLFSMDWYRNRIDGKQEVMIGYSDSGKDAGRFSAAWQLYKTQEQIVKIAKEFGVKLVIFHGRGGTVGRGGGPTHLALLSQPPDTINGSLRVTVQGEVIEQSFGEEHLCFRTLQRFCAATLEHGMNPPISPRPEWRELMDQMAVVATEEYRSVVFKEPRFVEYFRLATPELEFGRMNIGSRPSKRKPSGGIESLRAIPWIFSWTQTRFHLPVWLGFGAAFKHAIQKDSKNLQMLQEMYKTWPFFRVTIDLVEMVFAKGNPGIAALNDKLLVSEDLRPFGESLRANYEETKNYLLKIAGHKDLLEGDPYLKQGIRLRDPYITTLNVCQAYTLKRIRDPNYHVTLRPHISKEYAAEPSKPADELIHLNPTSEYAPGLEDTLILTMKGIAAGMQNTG
pKd: −log10 of the molar value.
Value kind: pKd

compound="O=C(/C=C/c1cc(O)c(O)c(O)c1)c1ccc(O)cc1O [Compound 9, 2′,4′,3,4,5-Pentahydroxychalcone]" quantitative_result=6.34

###

Each entry below carries its reported activity at 40 µM.
test system: Pseudomonas putida KT2440; assay: Bacterial growth in microscale cultivation, P. putida; format: cell-based; settings: Pseudomonas putida, KT2440, minimal medium, 40 µM, relative to control; read-out: Growth rate
Value kind: activity at 40 µM (%)

molecule="O=C(/C=C/c1ccccc1)c1ccc(O)cc1O [Compound 4, 2′,4′-Dihydroxychalcone]" measured_target="Pseudomonas putida KT2440" value_kind="activity at 40 µM" quantitative_result=98.3
molecule="O=C(/C=C/c1ccccc1O)c1ccc(O)cc1O [Compound 7, 2′,4′,2-Trihydroxychalcone]" measured_target="Pseudomonas putida KT2440" value_kind="activity at 40 µM" quantitative_result=94.3
molecule="O=C(/C=C/c1ccc(O)c(O)c1)c1ccc(O)cc1O [Compound 8, 2′,4′,3,4-Tetrahydroxy-chalcone]" measured_target="Pseudomonas putida KT2440" value_kind="activity at 40 µM" quantitative_result=90
molecule="O=C(/C=C/c1ccc(O)cc1)c1ccccc1O [Compound 3, 2′,4-Dihydroxychalcone]" measured_target="Pseudomonas putida KT2440" value_kind="activity at 40 µM" quantitative_result=97.1
molecule="O=C(/C=C/c1ccc(O)cc1)c1ccc(O)cc1O [Compound 6, 2′,4′,4-Trihydroxychalcone]" measured_target="Pseudomonas putida KT2440" value_kind="activity at 40 µM" quantitative_result=106

###

system: Corynebacterium glutamicum ATCC13032; assay: Bacterial growth in microscale cultivation, C. glutamicum; type: cell-based; settings: minimal medium, 40 µM, relative to control
Value kind: Lag Phase

compound="O=C(/C=C/c1ccc(O)cc1)c1ccc(O)cc1O [Compound 6, 2′,4′,4-Trihydroxychalcone]" result=101,5%
compound="O=C(/C=C/c1ccc(O)c(O)c1)c1ccc(O)cc1O [Compound 8, 2′,4′,3,4-Tetrahydroxy-chalcone]" result=100,7%
compound="O=C(/C=C/c1ccccc1O)c1ccc(O)cc1O [Compound 7, 2′,4′,2-Trihydroxychalcone]" result=103,0%
compound="O=C(/C=C/c1ccc(O)cc1)c1ccccc1O [Compound 3, 2′,4-Dihydroxychalcone]" result=97,3%
compound="O=C(/C=C/c1ccccc1)c1ccc(O)cc1O [Compound 4, 2′,4′-Dihydroxychalcone]" result=100,0%

###

system: Corynebacterium glutamicum ATCC13032; assay: Bacterial growth in microscale cultivation, C. glutamicum; type: cell-based; details: Corynebacterium glutamicum, ATCC13032, complex medium, 40 µM, relative to control; read-out: Final Backscatter
Value kind: activity at 40 µM

molecule="O=C(/C=C/c1ccc(O)c(O)c1)c1ccc(O)cc1O [Compound 8, 2′,4′,3,4-Tetrahydroxy-chalcone]" result=108%
molecule="O=C(/C=C/c1ccc(O)cc1)c1ccc(O)cc1O [Compound 6, 2′,4′,4-Trihydroxychalcone]" result=98.2%
molecule="O=C(/C=C/c1ccccc1O)c1ccc(O)cc1O [Compound 7, 2′,4′,2-Trihydroxychalcone]" result=98.3%
molecule="O=C(/C=C/c1ccccc1)c1ccc(O)cc1O [Compound 4, 2′,4′-Dihydroxychalcone]" result=105%
molecule="O=C(/C=C/c1ccc(O)cc1)c1ccccc1O [Compound 3, 2′,4-Dihydroxychalcone]" result=103%

###

tested on: Escherichia coli K-12 MG1655; experiment: Bacterial growth in microscale cultivation, E. coli; assay type: cell-based; conditions: complex medium, 40 µM, relative to control
Each entry below carries its reported Lag Phase.
Value kind: Lag Phase

molecule="O=C(/C=C/c1ccccc1O)c1ccc(O)cc1O [Compound 7, 2′,4′,2-Trihydroxychalcone]" result=111,1%
molecule="O=C(/C=C/c1ccc(O)cc1)c1ccccc1O [Compound 3, 2′,4-Dihydroxychalcone]" result=102,1%
molecule="O=C(/C=C/c1ccc(O)cc1)c1ccc(O)cc1O [Compound 6, 2′,4′,4-Trihydroxychalcone]" result=100,0%
molecule="O=C(/C=C/c1ccccc1)c1ccc(O)cc1O [Compound 4, 2′,4′-Dihydroxychalcone]" result=101,8%
molecule="O=C(/C=C/c1ccc(O)c(O)c1)c1ccc(O)cc1O [Compound 8, 2′,4′,3,4-Tetrahydroxy-chalcone]" result=100,0%

###

test system: Escherichia coli K-12 MG1655; assay: Bacterial growth in microscale cultivation, E. coli; assay type: cell-based; conditions: complex medium, 400 µM, relative to control
Value kind: Lag Phase

compound="O=C(/C=C/c1ccc(O)cc1)c1ccc(O)cc1O [Compound 6, 2′,4′,4-Trihydroxychalcone]" result=107,4%
compound="O=C(/C=C/c1ccccc1)c1ccc(O)cc1O [Compound 4, 2′,4′-Dihydroxychalcone]" result=101,5%
compound="O=C(/C=C/c1ccccc1O)c1ccc(O)cc1O [Compound 7, 2′,4′,2-Trihydroxychalcone]" result=118,5%
compound="O=C(/C=C/c1ccc(O)cc1)c1ccccc1O [Compound 3, 2′,4-Dihydroxychalcone]" result=97,8%

###

Each entry below carries its reported activity at 4 µM.
system: Escherichia coli K-12 MG1655; test: Bacterial growth in microscale cultivation, E. coli; type: cell-based; conditions: Escherichia coli, MG1655, minimal medium, 4 µM, relative to control; read-out: Final Backscatter
Value kind: activity at 4 µM (%)

compound="O=C(/C=C/c1ccccc1O)c1ccc(O)cc1O [Compound 7, 2′,4′,2-Trihydroxychalcone]" value_kind="activity at 4 µM" quantitative_result=98.2
compound="O=C(/C=C/c1ccccc1)c1ccc(O)cc1O [Compound 4, 2′,4′-Dihydroxychalcone]" value_kind="activity at 4 µM" quantitative_result=103
compound="O=C(/C=C/c1ccc(O)c(O)c1)c1ccc(O)cc1O [Compound 8, 2′,4′,3,4-Tetrahydroxy-chalcone]" value_kind="activity at 4 µM" quantitative_result=94.1
compound="O=C(/C=C/c1ccc(O)cc1)c1ccccc1O [Compound 3, 2′,4-Dihydroxychalcone]" value_kind="activity at 4 µM" quantitative_result=100
compound="O=C(/C=C/c1ccc(O)cc1)c1ccc(O)cc1O [Compound 6, 2′,4′,4-Trihydroxychalcone]" value_kind="activity at 4 µM" quantitative_result=100
